PROTOCOL SUMMARY: yeast display, Sf9 membrane polyspecificity reagent, FACS + sequencing; frameworks hold sequencing errors
PROPERTY NAME: polyreactivity (PSR sort gate)

Some entries whose results are on file:
chain=QVQLVESGGGLVQAGGSLRLSCAASGITFVYYAMGWYRPAPGKERELVAAISWNGGSTYYADSVKGRFTISRDNAKNTVYLQMNSLKPEDSAVYYCNADSDPWYGHFSYYYYDMGYWGQGTQVTVSS result="low polyreactivity"
chain=QVQLVESGGGLVQAGGSLRLSCAASGSIFKPYAMAWYRQAPGKERELVAAINRGGTSTYYADSVKGRFTISRDNAKNTVYLQMNSLKPEDTAVYYCAKTYTEYSVTRSGARMDYWGQGAQVTVSS result="low polyreactivity"
chain=EVQLVESGGGLVQAGGSLRLSCAASGRTFLVNAMGWSRPAPGKERELVAAISRSSGRTYYADSVKGRFTISRDNAKNTVYLQMNSLKPEDTAVYYCAARGYWGQGTQVTVSS result="high polyreactivity"
chain=QVLLVESGVGLVQAGGSLRLSCAASGRIFKLYAMGWYRQAPGKERELVAAITRRGGSTSYADSVKGRFTISRDNAKNTVYLQMNSLKPEDTAVYYCAASYTGRTVVQGYEYWGQGTQVTVSS result="high polyreactivity"
chain=QVQLVESGGGLVQAGGSLRLSCAASGITFVQYAMGWYRQAPGKERELVAAIRRGGSTSYADSVKGRFTISRDNAKNTVYLQMNSLKPEDTAVYYCARRYDWPITPLDVEYWGQGTQVTVSS result="low polyreactivity"

Item under review: QVQLVESGGGLVQAGGSLRLTCAASGSTFTVNGMGWYRQAPGKERELVASITWSGGSTYYADSVKGRFTISRDNAKITVYLQMNSLKPEDTAVYYCAADEKLYITGYDYWGQGTQVTVSS . Reported polyreactivity (PSR sort gate)?
low polyreactivity

Would you mind telling me what polyreactivity (PSR sort gate) value was observed for QVQLVESGGGLVQAGGSLRLSCAASGRTFFGYAMGWYRQAPGKERELVAAISSRGDSTYYADSVKGRFTISRDNAKNTVYLQMNSLKPEDTAVYYCNTYSTVYSYDYDYWGQGTQVTVSS ?
low polyreactivity

Item QVQLVESGGGLVQAGGSLRLSCAASGRTFSRYAMGWYRQAPGKERELVAAISRGGGSTNYADSVKGRFTISRDNAKNTVYLQMNSLKPEDTAVYYCASEYRYDWYTYGSWGQGTQVTVSS has what recorded polyreactivity (PSR sort gate)?
high polyreactivity

Data request, read-out polyreactivity (PSR sort gate), for QVQLVESGGGLVQAGGSLRLSCAASGLIFAYNTMGWYRQAPGKERELVAGITSGGSTYYADSVKGRFTISRDNAKNTVYLQMNSLKPEDTAVYYCAAAYRTGSVSFGYWGQGTQVTVSS
high polyreactivity

###

PROTOCOL SUMMARY: yeast display, Sf9 membrane polyspecificity reagent, FACS + sequencing; frameworks hold sequencing errors
PROPERTY NAME: polyreactivity (PSR sort gate)

chain=QVQLVESGGGLVQAGGSLRLSCAHSGFTFTYYAMGWYRQAPGKEREFVAGISRSGGSTYYADSVKGRFTISRDIAKNTVYLQMNSLKPEDTAVYYCAATAYSPRGKRYDSWGQGTQVTVSS result="high polyreactivity"
chain=QVQLVESGGGLVQAGGSLRLSCAASGRTFHSYAMGWYRQAPGKERELVAAITSSGGSTYYADSVKGRFTISRDNAKNTVYLQMNSLKPEDTAVYYGNAYVRYGYGYYYWGQGTQVTVSS result="high polyreactivity"
